Target Of Assay: T1, human ferroportin (SLC40A1) fused in frame with GFP (human) (UniProt Q9NP59)
T1 sequence (looked up): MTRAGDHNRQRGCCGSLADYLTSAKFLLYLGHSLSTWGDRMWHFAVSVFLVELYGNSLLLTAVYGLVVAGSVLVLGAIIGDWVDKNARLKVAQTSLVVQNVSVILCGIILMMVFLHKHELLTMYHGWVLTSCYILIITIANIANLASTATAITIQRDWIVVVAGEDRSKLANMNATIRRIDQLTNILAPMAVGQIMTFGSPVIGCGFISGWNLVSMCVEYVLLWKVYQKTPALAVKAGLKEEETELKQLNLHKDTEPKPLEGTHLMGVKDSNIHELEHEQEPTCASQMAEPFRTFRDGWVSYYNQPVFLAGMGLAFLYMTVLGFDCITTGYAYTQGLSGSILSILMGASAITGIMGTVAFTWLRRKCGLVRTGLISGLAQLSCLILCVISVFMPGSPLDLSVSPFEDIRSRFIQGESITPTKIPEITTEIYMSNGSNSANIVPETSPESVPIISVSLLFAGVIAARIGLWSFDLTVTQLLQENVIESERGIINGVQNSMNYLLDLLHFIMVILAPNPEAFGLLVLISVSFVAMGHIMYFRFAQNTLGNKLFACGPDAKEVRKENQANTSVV
Assay Text: cell-based or functional assay
Starred links: 1 amine or outer side, 2 acyl side, 3 side chain; linkers in the order of their positions; H or OH if unused. Positions of bridges follow the written chain, without caps; N, C: chain ends. Non-standard residues stand in square brackets, D forms with d. Groups on a side chain read outwards from the residue. No end group written: not given here. *: point of attachment. PEG12 = NCCOCCOCCOCCOCCOCCOCCOCCOCCOCCOCCOCCOCCC(=O)O; Dip = N[C@H](C(=O)O)C(c1ccccc1)c1ccccc1; γGlu = O=C(O)[C@H](CCC(=O)[*:2])N[*:1]; Palmitoyl = CCCCCCCCCCCCCCCC(=O)*; β3hF = N[C@H](CC(=O)O)Cc1ccccc1; NMeL = CN[C@@H](CC(C)C)C(=O)O; Spiral_Pip = not defined here; Isovaleryl = CC(C)CC(=O)*; Ahx = NCCCCCC(=O)O; Sar = CNCC(=O)O
Catalogue of FPN EC50 values

Binder: DTHXPCIKXKXC (N-term isovaleric acid; 4 Dpa; 8 (D)Lys; 9 bhPhe; 10 Lys(Ahx-Palm); 11 Cav; C-term NH2) [Compd. ID 26]
FPN EC50, nM: 32.2
--
Binder: DTHXPCIKXKC (N-term isovaleric acid; 4 Dpa; 8 Lys[Ahx-isoGlu-Palm]; 9 bhPhe; 10 (D)Lys; C-term NH2) [Compd. ID 5]
FPN EC50, nM: 0.75
--
Binder: Isovaleryl-DTHFPCIK([γGlu-Palmitoyl])FEPRSKGC (disulfide 6-16 (inferred)) [Compd. ID 218]
FPN EC50, nM: 15.6
--
Binder: DTHXPCIKXKKC (N-term isovaleric acid; 4 Dpa; 8 (D)Lys; 9 bhPhe; 10 Lys(1Peg2_1Peg2_IsoGlu_C18_Diacid); 11 (D)Lys; C-term NH2) [Compd. ID 42]
FPN EC50, nM: 1700
--
Binder: Isovaleryl-DTH[Dip]PC[NMeL][dK][β3hF]K([Ahx-Palmitoyl])[dK]C-NH2 (disulfide 6-12 (inferred); not fully specified) [Compd. ID 201]
FPN EC50, nM: 12.5
--
Binder: DTHXPCIKXKKC (N-term isovaleric acid; 4 Dpa; 8 (D)Lys; 9 bhPhe; 10 Lys(2Peg11′_KKKGS_Palm); 11 (D)Lys; C-term NH2) [Compd. ID 45]
FPN EC50, nM: 24.5
--
Binder: Isovaleryl-DTH[Dip]PCI[dK][β3hF]K([PEG12-Palmitoyl])PRSK[Sarc]C-NH2 (disulfide 6-16 (inferred)) [Compd. ID 34]
FPN EC50, nM: 23.6
--
Binder: Isovaleryl-DTHFPCIK(Ac)FK([PEG12-Palmitoyl])PK(Ac)SK(Ac)[Sar]CK-NH2 (disulfide 6-16 (inferred)) [Compd. ID 214]
FPN EC50, nM: 7.19
--
Binder: DTHXPCIKXKRC (N-term isovaleric acid; 4 Dpa; 8 (D)Lys; 9 bhPhe; 10 Lys(Ahx-Palm); 11 Arg(Dimethyl); C-term NH2) [Compd. ID 23]
FPN EC50, nM: 41.6
--
Binder: DTHXPCIKXKKC (N-term isovaleric acid; 4 Dpa; 8 (D)Lys; 9 bhPhe; 10 Lys(2Peg11′_Sarc_Palm); 11 (D)Lys; C-term NH2) [Compd. ID 36]
FPN EC50, nM: 10.9
--
Binder: DTHXPCIKXKPC (N-term isovaleric acid; 4 Dpa; 8 (D)Lys; 9 bhPhe; 10 Lys(Ahx-Palm); 11 Pro(4-Amino); C-term NH2) [Compd. ID 25]
FPN EC50, nM: 25.7
--
Binder: Isovaleryl-DTH[Dip]PCI[Spiral_Pip][β3hF]K([Ahx-Palmitoyl])[dK]C-NH2 (disulfide 6-12 (inferred); reading uncertain) [Compd. ID 27]
FPN EC50, nM: 26.3
